Tested on: Escherichia coli TOP10
ASSAY_EXPLANATION: shrunken log2 fold change of peptide-encoding DNA abundance (4.5 h post-induction vs induction); higher = less antimicrobial activity (less host growth inhibition)
EXPERIMENTAL_CONDITIONS: time post-induction: 4.5 h; library: site-saturation at positions 5, 18, 19, 20
Classes are defined on shrunken log2 fold change with ranges bucket A (below -0.1), bucket B (-0.1 to below 0.08), bucket C (0.08 or more)

Check out these entries, answers already filled in.
{"columns": ["BIOPOLYMER_SEQUENCE", "ASSIGNED_CATEGORY"],
 "data": [
  ["RRIRKRPPRLPRPRPRPGHMPRP", "bucket C"],
  ["RRIRFRPPRLPRPRPRPINDPRP", "bucket A"],
  ["RRIRMRPPRLPRPRPRPFEWPRP", "bucket C"],
  ["RRIRRRPPRLPRPRPRPEEMPRP", "bucket C"],
  ["RRIRFRPPRLPRPRPRPHAMPRP", "bucket C"],
  ["RRIRSRPPRLPRPRPRPYGFPRP", "bucket A"]
]}

Which class holds RRIRARPPRLPRPRPRPFREPRP ?
bucket A

Which class holds RRIRMRPPRLPRPRPRPRKIPRP ?
bucket C

Which class holds RRIRSRPPRLPRPRPRPLFAPRP ?
bucket B

Which class holds RRIRQRPPRLPRPRPRPTICPRP ?
bucket A

Which class holds RRIRLRPPRLPRPRPRPKGLPRP ?
bucket B

Which class holds RRIRYRPPRLPRPRPRPYVIPRP ?
bucket A

Which class holds RRIRYRPPRLPRPRPRPWQCPRP ?
bucket B

Which class holds RRIRGRPPRLPRPRPRPCKCPRP ?
bucket B

Which class holds RRIRMRPPRLPRPRPRPEMTPRP ?
bucket B

Which class holds RRIRKRPPRLPRPRPRPWICPRP ?
bucket B

Which class holds RRIRSRPPRLPRPRPRPVQEPRP ?
bucket C

Which class holds RRIRNRPPRLPRPRPRPMPSPRP ?
bucket C

Which class holds RRIRCRPPRLPRPRPRPKLLPRP ?
bucket A

Which class holds RRIRERPPRLPRPRPRPHMDPRP ?
bucket A

* * *

Test system: Escherichia coli TOP10
ASSAY_EXPLANATION: shrunken log2 fold change of peptide-encoding DNA abundance (4.5 h post-induction vs induction); higher = less antimicrobial activity (less host growth inhibition)
EXPERIMENTAL_CONDITIONS: time post-induction: 4.5 h; library: site-saturation at positions 5, 18, 19, 20
Decision: shrunken log2 fold change compared against 0.01; not below it gives MET, below it gives NOT MET.

Check out these entries, answers already filled in.
{"columns": ["BIOPOLYMER_SEQUENCE", "ASSIGNED_CATEGORY"],
 "data": [
  ["RRIRARPPRLPRPRPRPFQKPRP", "MET"],
  ["RRIRRRPPRLPRPRPRPTTMPRP", "MET"],
  ["RRIRIRPPRLPRPRPRPDKVPRP", "NOT MET"],
  ["RRIRQRPPRLPRPRPRPEWQPRP", "NOT MET"],
  ["RRIRWRPPRLPRPRPRPKNWPRP", "MET"],
  ["RRIRCRPPRLPRPRPRPWHGPRP", "NOT MET"],
  ["RRIRARPPRLPRPRPRPCIVPRP", "NOT MET"],
  ["RRIRPRPPRLPRPRPRPDTGPRP", "MET"],
  ["RRIRPRPPRLPRPRPRPRHTPRP", "MET"],
  ["RRIRERPPRLPRPRPRPIWPPRP", "MET"]
]}

Record RRIRNRPPRLPRPRPRPYFGPRP ; criterion: shrunken log2 fold change no lower than 0.01. Met?
NOT MET

Record RRIRPRPPRLPRPRPRPCHQPRP ; criterion: shrunken log2 fold change no lower than 0.01. Met?
MET

* * *

Each entry below carries its reported shrunken log2 fold change.
Tested on: Escherichia coli TOP10
ASSAY_EXPLANATION: shrunken log2 fold change of peptide-encoding DNA abundance (4.5 h post-induction vs induction); higher = less antimicrobial activity (less host growth inhibition)
EXPERIMENTAL_CONDITIONS: time post-induction: 4.5 h; library: site-saturation at positions 5, 18, 19, 20
Please reply with the number alone, leaving off any unit.

Completed entries (count: 5):
{"columns": ["BIOPOLYMER_SEQUENCE", "SYSTEM", "shrunken log2 fold change"],
 "data": [
  ["RRIRCRPPRLPRPRPRPSCVPRP", "Escherichia coli TOP10", -0.0959],
  ["RRIRVRPPRLPRPRPRPYEQPRP", "Escherichia coli TOP10", -0.285],
  ["RRIRRRPPRLPRPRPRPGFYPRP", "Escherichia coli TOP10", -0.107],
  ["RRIRDRPPRLPRPRPRPEFSPRP", "Escherichia coli TOP10", 0.221],
  ["RRIRDRPPRLPRPRPRPRQIPRP", "Escherichia coli TOP10", -0.233]
]}

The reported value for RRIRDRPPRLPRPRPRPMHDPRP in terms of shrunken log2 fold change is 0.122

* * *

Test system: Escherichia coli TOP10;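 note: peptides expressed intracellularly from a pBAD plasmid library in pooled LB shake-flask culture, induced with 0.3% L-arabinose, DNA abundance read by NGS, three biological replicates, DESeq2 with apeglm shrinkage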
ASSAY_EXPLANATION: shrunken log2 fold change of peptide-encoding DNA abundance (4.5 h post-induction vs induction); higher = less antimicrobial activity (less host growth inhibition)
EXPERIMENTAL_CONDITIONS: time post-induction: 4.5 h; library: site-saturation at positions 5, 18, 19, 20
Decision: shrunken log2 fold change compared against -0.1; not below it gives true, below it gives false.

Check out these entries, answers already filled in.
{"columns": ["BIOPOLYMER_SEQUENCE", "ASSIGNED_CATEGORY"],
 "data": [
  ["RRIRCRPPRLPRPRPRPNHNPRP", "false"],
  ["RRIRFRPPRLPRPRPRPSMDPRP", "false"],
  ["RRIRHRPPRLPRPRPRPTHGPRP", "true"],
  ["RRIRVRPPRLPRPRPRPNMRPRP", "false"]
]}

Record RRIRYRPPRLPRPRPRPVWFPRP ; criterion: shrunken log2 fold change no lower than -0.1. Met?
false

Record RRIRVRPPRLPRPRPRPDNLPRP ; criterion: shrunken log2 fold change no lower than -0.1. Met?
true
